# Test system: SR
# assay-method-text: NCI tumour cell line growth inhibition, 48 h
Calls of active or inactive are those of the source. Rule as the data show it: active = GI50 up to about 1.1 µM and inactive = higher.
Thanks in advance; please answer with one of these: active, inactive

compound	assigned-class
COc1ccc(NC(=O)C(C#N)=C(SC)SC)cc1	inactive
COc1ccc2c(c1)O[C@H]1c3ccc(O)cc3OC[C@@H]21	inactive
Cc1ccc2oc(=O)c(-c3ccccc3)nc2c1	inactive
Cc1c2n(c(=O)[nH]c1=O)C1OC(CO)C(O2)C1O (configuration not stated)	inactive

QUERY: I'd appreciate the recorded outcome for Cc1ccccc1-c1c(N)nc(NC#N)nc1C(=O)Nc1ccccc1 from this test.
RESULT: inactive

QUERY: Test call for this compound, please: O=C(NS(=O)(=O)OCC(Cl)(Cl)Cl)SCCC(F)(F)C(F)(F)C(F)(F)C(F)(F)C(F)(F)C(F)(F)F
RESULT: inactive

QUERY: Please share the test call associated with COC(=O)[C@]12CC[C@H]3CN(C(=O)OCc4ccccc4)[C@H]([C@H]31)[C@H](c1ccccc1)N2 .
RESULT: inactive

QUERY: Assay outcome for COc1ccc(NC(=O)CC(=O)N/N=C/c2ccc(N(CCC#N)S(C)(=O)=O)cc2)cc1 : what was it?
RESULT: inactive

* * *

# System: DMS-114
# assay-method-text: NCI tumour cell line growth inhibition, 48 h
Active and inactive are the calls of the source. No stated cut-off is given here; in the data, active = GI50 up to about 1.1 µM and inactive = higher.
I'd appreciate it if you could supply GI50 values for the items below.

Batch request: GI50 per item, same order as input.
1. CCCc1[nH]c(SCCCCCCCCSc2nc(-c3ccc(F)cc3)c(CCC)[nH]2)nc1-c1ccc(F)cc1
2. CCCN(CCCN)/[N+]([O-])=N\O
3. Cc1cccc(NC(=O)C(=O)C2C(=O)NC(=O)NC2=O)c1C
4. Cc1cc(N(CCC#N)CCC#N)ccc1/N=N/c1cc(Cl)ccc1Cl

RESULT:
3.94 µM (inactive)
> 100 µM (inactive)
> 100 µM (inactive)
6.59 µM (inactive)

* * *

Consider the following compounds; for each one, report its GI50.
# Test system: UACC-62
# assay-method-text: NCI tumour cell line growth inhibition, 48 h
Activity calls are given as the source filed them. Rule as the data show it: active = GI50 up to about 1.1 µM and inactive = higher.

compound	GI50
CC(C)/C(=N\[N+](C)(C)C)c1ccccc1	> 100 µM (inactive)
CC1=NN(C(=O)CC(=O)Nc2cccc(C)c2)C(=O)C1/N=N/c1ccc(S(=O)(=O)CCOS(=O)(=O)O)cc1 (centres undefined)	1.81 µM (inactive)
COC1/C=C(C)/C=C/C(C)/C=C/C(=O)OC(/C(C)=C/C=C(\C)CNC(=O)[C@H](CO)NC=O)C(C)/C=C/C=C/C(OC)CC/C=C(C)/C=C/C1 (some centres undefined)	0.0251 µM (active)
O=C(Nc1ccccc1SC(/C=C/NNC1=NN=C(c2ccccc2)C(c2ccccc2)N1)c1ccccc1)c1ccc(Cl)cc1Cl (centres undefined)	36.8 µM (inactive)

Please supply GI50 for each of the following items, keeping them in order.
1. CCCc1[nH]c(SCCCCCCCCSc2nc(-c3ccc(F)cc3)c(CCC)[nH]2)nc1-c1ccc(F)cc1
2. Cc1c(C(=O)/C=C/c2c(Cl)cccc2Cl)c(=O)n(-c2ccccc2)n1C
3. COc1cc(/C=C\c2cccnc2)cc(OC)c1OC
4. CN(C)CCC1(C2=CCCC2)CC/C(=C\c2ccccc2)C1=O (centres undefined)

RESULT:
5.58 µM (inactive)
21.6 µM (inactive)
46.3 µM (inactive)
13.6 µM (inactive)

* * *

Field: GI50. Provide a value for each of the compounds that follow.
# Tested on: K562
# assay-method-text: NCI tumour cell line growth inhibition, 48 h
Calls of active or inactive are those of the source. No stated cut-off is given here; in the data, active = GI50 up to about 1.1 µM and inactive = higher.

compound	GI50
CCC(CC)NC1=C(NC(C)=O)C(=O)c2ccccc2C1=O	> 50 µM (inactive)
COC(=O)C1=C(C)N(NC(=O)Nc2ccccc2)C2(N)N(NC(=O)Nc3ccccc3)C(C)=C(C(=O)OC)C12C(=O)OC (centres undefined)	51.9 µM (inactive)
Cc1ccc(C2[C@H]3C(=O)N(c4ccc(Cc5ccc(N6C(=O)[C@@H]7ON(c8ccccc8)C(c8ccc(C)cc8)[C@@H]7C6=O)cc5)cc4)C(=O)[C@H]3ON2c2ccccc2)cc1 (some centres undefined)	> 100 µM (inactive)

Next compound, GI50 to be filled in.
QUERY: Suppose we examine the compound c1cc2c(ncc3cscc32)s1 ; what GI50 value has been reported?
RESULT: > 100 µM (inactive)

* * *

Kindly supply the reported GI50 values for the records listed here.
# Tested on: NCI-H23
# assay-method-text: NCI tumour cell line growth inhibition, 48 h
Active and inactive are the calls of the source. Rule as the data show it: active = GI50 up to about 1.1 µM and inactive = higher.

Some compounds with recorded GI50:
compound	GI50
Nc1cc(O)nc(SC2=NC(N)CC(O)C2)n1 (configuration not stated)	> 100 µM (inactive)
CC1(C)CC(C#Cc2ccccc2)CC(C)(C)N1O	15.7 µM (inactive)
CC(=O)OC(C)C(=O)C1c2cccc(O)c2C(=O)c2c(O)cc(C)cc21 (configuration not stated)	0.324 µM (active)
CC(C)(C)c1cc(C(P(=O)(O)O)P(=O)(O)O)cc(C(C)(C)C)c1O	> 100 µM (inactive)
COc1cc(OC)c(-c2cc(=O)c3c(OC)c(OC)c(OC)c(OC)c3o2)cc1OC	33 µM (inactive)

Please state GI50 for every compound in the list that follows.
1. Nc1n[nH]c2c(C(=O)Nc3ccc(Cl)cc3)c(N)n(N)c(=O)c12
2. Cc1ccc2c(c1)CC1(Cc3c(C)cccc3C1=O)C2=O (configuration not stated)

RESULT:
1. > 100 µM (inactive)
2. > 100 µM (inactive)

For the 5 compounds below, give their GI50 values.
1. COc1ccc(C(c2ccc(C(C)C)cc(=O)c2O)c2c(O)cc3oc(-c4ccccc4)cc(=O)c3c2O)cc1 (configuration not stated)
2. COc1ccc(/C=c2/s/c(=C(\C#N)c3nc4ccccc4[nH]3)n(-c3ccccc3)c2=O)cc1
3. O=S(=O)(N/C(=N\O)Nc1ccc(Cl)cc1)c1cc2ccccc2s1
4. CC/C=C/C[C@H](O[Si](C)(C)C(C)(C)C)[C@H]1C[C@H]2O[C@H]([C@@H](O)C#C[Si](C)(C)C)C[C@H]2O1
5. COc1ccc2c(c1)O[C@H]1c3ccc(O)cc3OC[C@@H]21

RESULT:
1. 4.79 µM (inactive)
2. 22.6 µM (inactive)
3. 16 µM (inactive)
4. 12 µM (inactive)
5. 26 µM (inactive)

Need GI50 for each of these compounds.
1. CCN1CCC(O)(/C=C/c2ccccc2)C(C(=O)/C=C/c2ccccc2)C1 (configuration not stated)
2. Cn1nc(-c2ccccc2)nc1[N+](=O)[O-]
3. N#Cc1ccc(/C=N/C23CC4CC(CC(C4)C2)C3)cc1

RESULT:
1. 2.93 µM (inactive)
2. > 10 µM (inactive)
3. > 100 µM (inactive)

* * *

# System: UACC-62
# assay-method-text: NCI tumour cell line growth inhibition, 48 h
Active and inactive are the calls of the source. Rule as the data show it: active = GI50 up to about 1.1 µM and inactive = higher.
Kindly supply the reported GI50 values for the records listed here.

compound	GI50
CC1(C)C2CCC1(C)[C@H](O)[C@H]2Nc1cc(C(F)(F)F)cc(C(F)(F)F)c1 (stereo partly drawn)	> 100 µM (inactive)

Give measured GI50 for every item shown.
1. CCC1CCC2c3c([nH]c4ccccc34)C3C(=O)N(c4ccc(OC)cc4)C(=O)C3C2C1 (stereo not drawn)
2. CCOC(=O)C(Cl)(NC(=O)c1c(F)c(F)c(F)c(F)c1F)C(F)(F)F (stereo not drawn)

RESULT:
["61.8 µM (inactive)", "> 100 µM (inactive)"]

* * *

# Tested on: DMS-114
# assay-method-text: NCI tumour cell line growth inhibition, 48 h
The source made the active and inactive calls. Rule as the data show it: active = GI50 up to about 1.1 µM and inactive = higher.
// one of active, inactive, no free text

Worked set:
compound	assigned-class
Cc1cc(NS(=O)(=O)c2ccc(Nc3c4ccccc4nc4c(C(=O)NCCN(C)C)cccc34)cc2)no1	active
CC1(C)N=C(N)N=C(N)N1c1ccc(CCCCc2ccc(S(=O)(=O)F)cc2Cl)c(Cl)c1	active
COC1(OC)C(N(C)C)=C(Cl)C(=O)/C1=C/C=O	inactive
CN[C@@H](C)[C@@H](NC)c1ccccc1	inactive
Cc1cc(O)nc(NNC(C#N)c2ccc(O)cc2)n1 (stereo unspecified)	inactive

Kindly consider the entry below.
QUERY: Record lookup: outcome of this test for N#Cc1ccccc1C(Cl)(Cl)c1cnccn1 ?
RESULT: inactive

* * *

# Tested on: MDA-N
# assay-method-text: NCI tumour cell line growth inhibition, 48 h
Activity calls are given as the source filed them. Rule as the data show it: active = GI50 up to about 1.1 µM and inactive = higher.
I'd be grateful if you could share measured GI50 for these entries.

compound	GI50
C[C@]12CC[C@H](OC(=O)Cc3ccc(N(CCCl)CCCl)cc3)CC1=CC[C@@H]1[C@@H]2CC[C@]2(C)C(=O)CC[C@@H]12	> 100 µM (inactive)
CC(=O)N1C2=CCCC2(C)c2ccccc21 (stereo not given)	> 100 µM (inactive)
CN(C)CCCN1C(=O)N(CCCN(C)C)c2c3cc(O)ccc3nc3c([N+](=O)[O-])ccc1c23	37.3 µM (inactive)
OC1CN=C2c3ccccc3C(O)(c3ccc(Cl)cc3)N2C1 (stereo not given)	35.4 µM (inactive)
O=C(O)C(Cc1cccs1)C(=O)O	> 100 µM (inactive)

List the reported GI50 of each compound below.
1. Cc1ccc2c(c1C)C(=O)/C(=C/c1ccccc1C(=O)O)C2
2. CCN(CC)CCCNc1[nH]c2ccccc2c2nc3ccc(OC)cc3c1-2

RESULT:
1: > 100 µM (inactive); 2: 1.56 µM (inactive)

Required: GI50, one value per compound below.
1. Cc1c(/N=N/c2ccc(Cl)cc2)c(C)n(C2OC(CO)C(O)C(O)C2O)c(=S)c1C#N (stereo not given)
2. COc1ccc(CCN2C(=O)C(=O)C(C(=O)c3ccccc3)C2c2ccccc2)cc1OC (stereo not given)
3. O=C(/C=C/c1ccccc1)Oc1cccc(O)c1

RESULT:
1: 21.6 µM (inactive); 2: > 100 µM (inactive); 3: 57.8 µM (inactive)
